Target: Human A2a Adenosine Receptor (Homo sapiens)
Construct: purchased Receptor Biology, Inc., Beltsville, Md; RB-HA2a
Sequence (P29274 whole entry): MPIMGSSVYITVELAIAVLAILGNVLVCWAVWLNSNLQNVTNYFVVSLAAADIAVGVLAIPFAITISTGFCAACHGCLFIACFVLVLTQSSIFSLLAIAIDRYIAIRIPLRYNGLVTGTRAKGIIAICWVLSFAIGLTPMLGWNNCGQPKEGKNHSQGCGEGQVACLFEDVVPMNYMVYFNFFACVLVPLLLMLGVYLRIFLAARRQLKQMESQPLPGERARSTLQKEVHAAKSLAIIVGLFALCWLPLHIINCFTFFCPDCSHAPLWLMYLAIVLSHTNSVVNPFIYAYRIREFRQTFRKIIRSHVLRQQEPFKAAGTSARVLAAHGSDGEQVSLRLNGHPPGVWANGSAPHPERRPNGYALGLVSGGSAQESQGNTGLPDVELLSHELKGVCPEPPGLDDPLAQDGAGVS
Assay: Human Adenosine A2a Receptor Competition Binding Assay ([3H]-SCH 58261 displacement)
Conditions: Table I; human A2a membranes, [3H]-SCH 58261 0.5 nM, Cheng-Prusoff; read-out: Activity (Ki)
Method: Human Adenosine A2a Receptor Competition Binding Assay Protocol A2a: Human A2a Adenosine Receptor membranes, Catalog #RB-HA2a, Receptor Biology, Inc., Beltsville, Md. Dilute to 17 μg/100 μl in membrane dilution buffer (see below). Membrane dilution buffer: Dulbecco's Phosphate Buffered Saline (Gibco/BRL)+ 10 mM MgCl2. Compound Dilution Buffer: Dulbecco's Phosphate Buffered Saline (Gibco/BRL)+10 mM MgCl2 supplemented with 1.6 mg/ml methyl cellulose and 16% DMSO. Prepared fresh daily. […]
Known Ki of a selection of compounds
# do not omit the unit; it follows the number

COC(=O)c1ccccc1Cn1nc2c(N)nc3ccccc3n2c1=O [Compound 26] : 1.9 nM
Nc1nc2ccccc2n2c(=O)n(Cc3ccccc3[N+](=O)[O-])nc12 [Compound 29] : 3.2 nM
Nc1nc2cc(F)c(F)cc2n2c(=O)n(Cc3c(F)cc(F)cc3F)nc12 [Compound 24] : 2.8 nM
COc1cccc(OC)c1Cn1nc2c(N)nc3ccccc3n2c1=O [Compound 44] : 14 nM
Nc1nc2cc(Cl)c(Cl)cc2n2c(=O)n(Cc3ccccc3)nc12 [Compound 16] : 1.4 nM
Nc1nc2ccc(C(F)(F)F)cc2n2c(=O)n(Cc3c(F)cccc3F)nc12 [Compound 42] : 10.2 nM

Now let's try a different one.
Entry Nc1nc2ccc(F)cc2n2c(=O)n(Cc3ccccc3)nc12 [Compound 6] , system Human A2a Adenosine Receptor (Homo sapiens): what Ki was measured?
0.9 nM
